# Experimental system: the molecule itself
# Assay info: SEC
Observed property: stoichiometry N
Please give the numeric answer without any surrounding text.

Query block: Any idea what its stoichiometry N is? The protein is BTN2A1 (271–527) W320A (domain or fragment, human, UniProt Q7KYR7 271-527, looked up) KLQKEKKILSGEKEFERETREIALKELEKERVQKEEELQVKEKLQEELRARRTFLHAVDVVLDPDTAHPDLFLSEDRRSVRRCPFRHLGESVPDNPERFDSQPCVLGRESFASGKHYWEVEVENVIEWTVGVCRDSVERKGEVLLIPQNGFWTLEMHKGQYRAVSSPDRILPLKESLCRVGVFLDYEAGDVSFYNMRDRSHIYTCPRSAFSVPVRPFFRLGCEDSPIFICPALTGANGVTVPEEGLTLHRVGTHQSL
Result block: 2

Query block: Any idea what its stoichiometry N is? The protein is BTN2A1 (309–527) wild type (domain or fragment, human, UniProt Q7KYR7 309-527, looked up) QVKEKLQEELRWRRTFLHAVDVVLDPDTAHPDLFLSEDRRSVRRCPFRHLGESVPDNPERFDSQPCVLGRESFASGKHYWEVEVENVIEWTVGVCRDSVERKGEVLLIPQNGFWTLEMHKGQYRAVSSPDRILPLKESLCRVGVFLDYEAGDVSFYNMRDRSHIYTCPRSAFSVPVRPFFRLGCEDSPIFICPALTGANGVTVPEEGLTLHRVGTHQSL
Result block: 2
